- target: SHP2-C SH2;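 note: peptide library displayed on the E. coli surface as eCPX fusions, selected cells deep-sequenced, score is each peptide's frequency after selection divided by its frequency in the input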
- experimental_details: SH2 binding enrichment of the phosphorylated peptide, bacterial display (enrichment ratio); higher = better substrate or ligand; peptides without Tyr show the background
Label scheme, based on SH2 binding enrichment: lower segment = under 0.7, middle segment = from 0.7 up to 0.9, upper segment = 0.9 and over

Past entries and their recorded results:
{"entry_sequence": "WDSSGYWTPEE [PAPPA2_Y908_C903W]", "group_label": "upper segment"}
{"entry_sequence": "RLLVIYPWTQR [HBG2_Y36_V35I]", "group_label": "upper segment"}
{"entry_sequence": "KKLHEYNTQFQ [PIK3R1_Y452]", "group_label": "middle segment"}
{"entry_sequence": "PGVDIYISPNM [PADI3_Y51]", "group_label": "lower segment"}
{"entry_sequence": "PDMHSYVVRFN [GRIN2D_Y732_M733V_YF]", "group_label": "upper segment"}

Ask | Note: place this sequence into its band. Item: VAFLYYKSIGP [ADGRL4_Y302_V300L]
Reply | lower segment

Ask | Note: place this sequence into its band. Item: PELINYHQHYS [BTK_Y361_N365Y]
Reply | upper segment

Ask | Note: place this sequence into its band. Item: ASQEEYSAMRD [KRAS_Y64_G60S]
Reply | lower segment

Ask | Note: place this sequence into its band. Item: ILTFKYLQKPM [KIT_Y547_YF]
Reply | lower segment

Ask | Note: place this sequence into its band. Item: ALRHFYKLNII [ETV6_Y402_YF]
Reply | upper segment

Ask | Note: place this sequence into its band. Item: MCDSHYLESRF [CLK1_Y56_S61F]
Reply | middle segment

Ask | Note: place this sequence into its band. Item: TESNNYIYTTL [FAM83B_Y637_K640T]
Reply | middle segment

Ask | Note: place this sequence into its band. Item: MQMEEYRGRVE [BTNL2_Y91_W94R]
Reply | middle segment

====

- target: Fes (UniProt P07332)
- Sequence (P07332 whole entry, looked up): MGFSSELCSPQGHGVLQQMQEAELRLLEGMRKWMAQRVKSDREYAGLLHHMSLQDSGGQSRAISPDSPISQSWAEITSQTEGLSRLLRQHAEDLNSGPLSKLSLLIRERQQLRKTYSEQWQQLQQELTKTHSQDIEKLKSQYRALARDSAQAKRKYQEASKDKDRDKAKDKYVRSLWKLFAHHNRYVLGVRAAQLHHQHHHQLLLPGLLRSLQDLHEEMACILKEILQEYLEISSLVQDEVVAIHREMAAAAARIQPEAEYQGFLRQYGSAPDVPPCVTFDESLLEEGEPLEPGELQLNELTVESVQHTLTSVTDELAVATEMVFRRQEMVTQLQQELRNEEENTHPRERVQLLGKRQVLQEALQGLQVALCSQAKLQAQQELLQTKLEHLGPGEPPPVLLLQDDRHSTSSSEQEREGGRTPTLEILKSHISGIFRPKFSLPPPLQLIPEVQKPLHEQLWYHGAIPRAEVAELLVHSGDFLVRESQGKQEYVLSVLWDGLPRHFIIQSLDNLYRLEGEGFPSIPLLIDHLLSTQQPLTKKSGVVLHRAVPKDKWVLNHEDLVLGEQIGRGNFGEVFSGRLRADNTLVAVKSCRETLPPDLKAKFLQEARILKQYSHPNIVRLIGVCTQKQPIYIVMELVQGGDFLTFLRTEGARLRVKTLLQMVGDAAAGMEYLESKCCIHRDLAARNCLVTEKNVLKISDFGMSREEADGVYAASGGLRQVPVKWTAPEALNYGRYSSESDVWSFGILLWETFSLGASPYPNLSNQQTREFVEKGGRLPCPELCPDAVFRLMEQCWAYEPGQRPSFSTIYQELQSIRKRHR
- experimental_details: phosphorylation enrichment, bacterial display (enrichment ratio); higher = better substrate or ligand; peptides without Tyr show the background
measurement_name: phosphorylation enrichment
Numbers only.

{"entry_sequence": "RAILDYIASKF [GSTA3_Y74_N73D_YF]", "target": "Fes (UniProt P07332)", "phosphorylation enrichment": 1.02}
{"entry_sequence": "AFSLKYEQQTQ [SYTL4_Y366]", "target": "Fes (UniProt P07332)", "phosphorylation enrichment": 1.21}

Parameter requested: phosphorylation enrichment. Apply to each item below.
1. EFENSYIFDIN [GAB1_Y83]
2. MLEVPYVDHNS [F10_Y384_R387H]

Reply |
1. 1.16
2. 1.42

====

- target: Hck (UniProt P08631)
- Sequence (P08631 whole entry, looked up): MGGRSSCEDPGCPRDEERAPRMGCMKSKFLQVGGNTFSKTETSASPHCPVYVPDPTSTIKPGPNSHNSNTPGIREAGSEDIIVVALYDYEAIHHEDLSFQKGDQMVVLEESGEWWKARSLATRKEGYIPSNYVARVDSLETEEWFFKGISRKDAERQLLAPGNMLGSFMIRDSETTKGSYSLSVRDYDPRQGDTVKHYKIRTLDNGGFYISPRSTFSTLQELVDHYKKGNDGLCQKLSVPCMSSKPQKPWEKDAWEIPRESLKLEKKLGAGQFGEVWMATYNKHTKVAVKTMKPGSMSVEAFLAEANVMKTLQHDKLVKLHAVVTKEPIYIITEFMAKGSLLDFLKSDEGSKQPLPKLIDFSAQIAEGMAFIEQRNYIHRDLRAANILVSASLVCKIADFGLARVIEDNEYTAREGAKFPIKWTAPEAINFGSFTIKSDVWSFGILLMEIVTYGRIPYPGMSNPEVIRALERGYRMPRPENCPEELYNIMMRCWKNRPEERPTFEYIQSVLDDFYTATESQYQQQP
- experimental_details: phosphorylation enrichment, bacterial display (enrichment ratio); higher = better substrate or ligand; peptides without Tyr show the background
Provide the recorded phosphorylation enrichment for the entries that follow.
Numbers only.

Some entries whose results are on file:
{"entry_sequence": "RLNAIYQNNLT [GSR_Y158]", "target": "Hck (UniProt P08631)", "phosphorylation enrichment": 1.25}
{"entry_sequence": "TESALYGCTVL [KIAA1804_Y724]", "target": "Hck (UniProt P08631)", "phosphorylation enrichment": 4.05}
{"entry_sequence": "FSDQVYRQHRK [TH_Y230_R233H]", "target": "Hck (UniProt P08631)", "phosphorylation enrichment": 0.447}
{"entry_sequence": "MSSHHCDYKKY [ZNF445_Y428_Y428C]", "target": "Hck (UniProt P08631)", "phosphorylation enrichment": 0.372}
{"entry_sequence": "ACRSLYGGFVE [MVD_Y164]", "target": "Hck (UniProt P08631)", "phosphorylation enrichment": 7.94}
{"entry_sequence": "PFSNPYENSLI [EPOR_Y489_YF]", "target": "Hck (UniProt P08631)", "phosphorylation enrichment": 0.848}
{"entry_sequence": "SFTDPYAQPSL [KMT2D_Y2378_P2382S_YF]", "target": "Hck (UniProt P08631)", "phosphorylation enrichment": 0.581}
{"entry_sequence": "SLIEHYEPSET [PLCD1_Y258_R257H]", "target": "Hck (UniProt P08631)", "phosphorylation enrichment": 0.535}
{"entry_sequence": "LAETSYVIVLE [MAGEA1_Y276_K278I]", "target": "Hck (UniProt P08631)", "phosphorylation enrichment": 0.727}
{"entry_sequence": "AKVKPYINGTS [IBTK_Y1064_V1065I]", "target": "Hck (UniProt P08631)", "phosphorylation enrichment": 0.359}

Parameter requested: phosphorylation enrichment. Apply to each item below.
1. AAVDTVCRHNF [HLA-DRB1_Y107_Y107V_YF]
2. EVESPYEVRDY [GIGYF2_Y1168_H1171R]
3. PQGVGYPPQPQ [EP300_Y2219_Q2223P]

Reply |
1. 0.429
2. 1.48
3. 0.571

====

- System: c-Abl (mouse)
- experimental_details: phosphorylation enrichment, bacterial display (enrichment ratio); higher = better substrate or ligand; peptides without Tyr show the background
phosphorylation enrichment vs 0.9: at or above is 1, below is 0.

Past entries and their recorded results:
{"entry_sequence": "KEAALYPHLPP [SQSTM1_Y383]", "target": "c-Abl (mouse)", "group_label": 0}
{"entry_sequence": "SVGGCYEQLFV [MC4R_Y41_D37V]", "target": "c-Abl (mouse)", "group_label": 1}
{"entry_sequence": "FSNKLYFQLEQ [PDPR_Y109_YF]", "target": "c-Abl (mouse)", "group_label": 0}
{"entry_sequence": "ILTFKYLQKPM [KIT_Y547_YF]", "target": "c-Abl (mouse)", "group_label": 1}
{"entry_sequence": "SDGHEYIFVDR [PDGFRB_Y579_P584R_YF]", "target": "c-Abl (mouse)", "group_label": 0}

Ask | Could you please find out whether TLSGIYQYNIA [FOXL2_Y81_I84N] has phosphorylation enrichment that meets 0.9 or exceeds it?
Reply | 1

Ask | Could you please find out whether FKPGFYNLKEK [LAMA1_Y490_C485Y_YF] has phosphorylation enrichment that meets 0.9 or exceeds it?
Reply | 0

Ask | Could you please find out whether AKYLGYPPPEI [KDR_Y357] has phosphorylation enrichment that meets 0.9 or exceeds it?
Reply | 0

Ask | Could you please find out whether IDFARYWHGDD [MMP11_Y162] has phosphorylation enrichment that meets 0.9 or exceeds it?
Reply | 0

Ask | Could you please find out whether FLQTDYTSQVS [FRMPD1_Y846] has phosphorylation enrichment that meets 0.9 or exceeds it?
Reply | 0

Ask | Could you please find out whether GQSKGYRPKLY [SIPA1L3_Y1376] has phosphorylation enrichment that meets 0.9 or exceeds it?
Reply | 0

====

- Test system: c-Src
- experimental_details: phosphorylation enrichment, bacterial display (enrichment ratio); higher = better substrate or ligand; peptides without Tyr show the background
phosphorylation enrichment vs 0.4: at or above is met, below is not met.

{"entry_sequence": "EEKSCYILHSS [PATJ_Y783_E780K]", "target": "c-Src", "group_label": "met"}
{"entry_sequence": "DKATEYIQFMR [MAX_Y70_YF]", "target": "c-Src", "group_label": "met"}
{"entry_sequence": "IKELTYQTEED [MYH7_Y1852]", "target": "c-Src", "group_label": "met"}
{"entry_sequence": "LKEIRYPPYTD [ALDH3B2_Y362_H361R]", "target": "c-Src", "group_label": "met"}
{"entry_sequence": "KAESWYQTKYE [KRT75_Y342_E337K]", "target": "c-Src", "group_label": "met"}

Ask | Could you please find out whether NSVLVYRNGDP [DCDC2_Y22_K17N] has phosphorylation enrichment that meets 0.4 or exceeds it?
Reply | met

Ask | Could you please find out whether MSSHHCDFKKF [ZNF445_Y428_Y428C_YF] has phosphorylation enrichment that meets 0.4 or exceeds it?
Reply | met

Ask | Could you please find out whether MPLTEYLKRIK [CNGB3_Y200] has phosphorylation enrichment that meets 0.4 or exceeds it?
Reply | not met

Ask | Could you please find out whether HYPDVYAWEQL [ALX3_Y181_R183W] has phosphorylation enrichment that meets 0.4 or exceeds it?
Reply | met

Ask | Could you please find out whether FTAVGYHKHFT [NOMO1_Y1137_I1141F] has phosphorylation enrichment that meets 0.4 or exceeds it?
Reply | met

Ask | Could you please find out whether PFQGAYLEINK [MYO1B_Y967] has phosphorylation enrichment that meets 0.4 or exceeds it?
Reply | met

Ask | Could you please find out whether HGTKVYIDPFT [EPHB4_Y590] has phosphorylation enrichment that meets 0.4 or exceeds it?
Reply | met

Ask | Could you please find out whether GRLPEYNTPIA [CCDC151_Y542_R545P] has phosphorylation enrichment that meets 0.4 or exceeds it?
Reply | met

Ask | Could you please find out whether KGLMPYGQPRP [SRRT_Y798_Q793K] has phosphorylation enrichment that meets 0.4 or exceeds it?
Reply | not met

Ask | Could you please find out whether HDRGNYVQLNM [RECQL4_Y353_R355Q] has phosphorylation enrichment that meets 0.4 or exceeds it?
Reply | met

Ask | Could you please find out whether DYTEAYNSKIK [CLK1_Y305_P307S] has phosphorylation enrichment that meets 0.4 or exceeds it?
Reply | met

Ask | Could you please find out whether GNEEAYGRSHI [FAM171B_Y522] has phosphorylation enrichment that meets 0.4 or exceeds it?
Reply | met

Ask | Could you please find out whether AAYNRYDQERF [CDC73_Y293] has phosphorylation enrichment that meets 0.4 or exceeds it?
Reply | met

Ask | Could you please find out whether AGTILSHAHLD [ASS1_Y291_Y291S] has phosphorylation enrichment that meets 0.4 or exceeds it?
Reply | not met

Ask | Could you please find out whether HNQDGYSYLSR [LDLR_Y845_P848L] has phosphorylation enrichment that meets 0.4 or exceeds it?
Reply | met

Ask | Could you please find out whether TLLERYGMTEI [ACSF3_Y355] has phosphorylation enrichment that meets 0.4 or exceeds it?
Reply | met

Just for reference, the supplement of paper PMC10065799 is where these values come from.
